assayExplanation: NCI Yeast Anticancer Drug Screen. Data for the sgs1 mgt1 strain (AID 161);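 further: 0% = growth of cultures given vehicle only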
experimentalSetup: S. cerevisiae sgs1 mgt1 strain, at 50.0 µM, hits give high values
The panel holds about 79,000 compounds, 15% with a hit somewhere; the sample as a whole holds those more often.
The entries below are paired with their reported growth inhibition.
Only the number, expressed in %, is required.

| compound | growth inhibition / % |
| --- | --- |
| CC1(C)OC2COC(CNS(C)(=O)=O)C2O1 (configuration not stated) | -9.2 |
| O=C(O)c1ccccc1NC(C(=O)O)c1ccccc1 (configuration not stated) | -27.4 |
| CC(=O)OCC1OC(n2c(C)c(N=Nc3ccccc3)c(C)c(C#N)c2=S)C(OC(C)=O)C(OC(C)=O)C1OC(C)=O (configuration not stated) | -1.7 |

In: Need growth inhibition, item `CNC(=O)N(CC1CCCCC1)c1nc2c(=O)n(C)c(=O)[nH]c2s1`
Out: -1

In: Need growth inhibition, item `COc1nc2cc3c(cc2n2cccc12)oc1ccccc13`
Out: -4

In: Need growth inhibition, item `O=C(O)CCNCCO`
Out: 5.1

In: Need growth inhibition, item `NCC(O)CN`
Out: -2.75

In: Need growth inhibition, item CCC/C=C/C=C/C1CC(O)C(O)C(=O)C1CO (configuration not stated)
Out: 17.1

In: Need growth inhibition, item `CC(=O)c1c(P(=O)(OC(C)C)OC(C)C)nn(-c2ccc([N+](=O)[O-])cc2)c1C`
Out: 22.1

In: Need growth inhibition, item `COc1n[nH]c(N)n1`
Out: 3.8

In: Need growth inhibition, item `Cn1ccc(=O)c2ccccc21`
Out: -8.55

In: Need growth inhibition, item C=C1C(=O)OC2C1C(=O)C/C(C)=C/CCC1(C)OC21 (configuration not stated)
Out: 63.2

----------
assayExplanation: NCI Yeast Anticancer Drug Screen. Data for the rad50 strain (AID 155);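 further: 0% = growth of vehicle-only cultures of the same strain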
experimentalSetup: S. cerevisiae rad50 strain growth inhibition; at 50.0 µM
About 79,000 compounds went through this panel and 15% of them were active in at least one assay; those are over-represented in the sample as a whole. The source made the active and inactive calls. No stated cut-off is given here; in the data, active means growth inhibition above about 70%; inactive means the rest.
Permitted responses: 1 for active, -1 for inactive

Worked examples, 5 compounds total:
| compound | classification |
| --- | --- |
| CCCCCCCN=C(N)CSSCC(N)=NCCCCCCC | 1 |
| CCOc1c/c(=N\N=C(/C)c2ccc(Cl)cc2)n(C)c(=O)n1C | -1 |
| COc1cc(C(=O)O)cc(OC(C)=O)c1OC | -1 |
| Cc1ccc(C(=O)C[n+]2ccccc2)c(O)c1 | -1 |
| Cc1nc(-n2nc(-c3ccccc3)cc2-c2ccccc2)sc1C(/C=C/c1ccc([N+](=O)[O-])cc1)=N/NC(=O)c1ccncc1 | -1 |

In: What did the test return for `CCCCCCCCCCCCCCCCCC(=O)Oc1ccc(OCc2ccccc2)cc1` ?
Out: -1

In: What did the test return for C=C1CC(C)(Cn2cnc3c(=O)[nH]cnc32)OC1=O (configuration not stated) ?
Out: -1

In: What did the test return for `N#CCC(=O)N1CCCC1` ?
Out: -1

In: What did the test return for COc1ccc(/C=N/N2CN(C(C)C(=O)O)C(O)(CCl)N=C2N)cc1OC (configuration not stated) ?
Out: -1

In: What did the test return for `CC(C)CCNc1ncnc2[nH]ncc12` ?
Out: -1

In: What did the test return for CN(C)c1nc(OC2C(C3COC(C)(C)O3)OC3OC(C)(C)OC32)nc(N(C)C)n1 (configuration not stated) ?
Out: -1

----------
The entries below are paired with their reported growth inhibition.
assayExplanation: NCI Yeast Anticancer Drug Screen. Data for the rad50 strain (AID 155);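 further: 0% = growth of vehicle-only cultures of the same strain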
experimentalSetup: S. cerevisiae rad50 strain growth inhibition; at 50.0 µM; hits give high values
About 79,000 compounds went through this panel and 15% of them were active in at least one assay; those are over-represented in the sample as a whole.
Only the number, expressed in %, is required.

In: Need growth inhibition, item `COc1ccc(/C=C2\N=C(SC)NC2=O)cc1`
Out: -8.35

In: Need growth inhibition, item CC(C)=CCCC(C)(O)C1CC=C(C)CC1 (stereo not given)
Out: 0.5

In: Need growth inhibition, item COC1OCC(NC(C)=O)C(OC(C)=O)C1OC(C)=O (stereo not given)
Out: 12.4

In: Need growth inhibition, item C#CC(C)(O)c1ccccc1 (stereo not given)
Out: -1.15

In: Need growth inhibition, item `COC(=O)C1=C(C(=O)OC)C(=Nc2ccccc2)c2ccccc2C1=O`
Out: 46.8

----------
assayExplanation: NCI Yeast Anticancer Drug Screen. Data for the rad50 strain (AID 155);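 further: 0% = growth of vehicle-only cultures of the same strain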
experimentalSetup: S. cerevisiae rad50 strain growth inhibition; at 50.0 µM; hits give high values
This is part of a sample that, as a whole, favours compounds with a hit. Of some 79,000 tested, about 15% had one in any assay.
readoutName: growth inhibition (%)
Only the number, expressed in %, is required.

# example entries with known answers
| compound | growth inhibition, % |
| --- | --- |
| CCCCCC/C(C)=C/CCC(C)=O | 12.4 |
| CCCC(O)(Cc1ccccc1)c1ccccc1 (stereo not given) | -39 |
| CCOC(=O)Cc1cc(C)c2ccccc2n1 | -7.75 |

In: Need growth inhibition, item `Nc1cccc2nsnc12`
Out: 3

In: Need growth inhibition, item COc1cccc2c1C1(O)C2CCCC12OCCCO2 (stereo not given)
Out: -26.3

In: Need growth inhibition, item `CCN(CC)CCCNc1ccc2ncn3c4ccc(O)cc4c(=O)c1c23`
Out: -14.8

In: Need growth inhibition, item `CCOC(=O)SC1=NC(C)=CC(C)(C)S1`
Out: 2.4

In: Need growth inhibition, item `CC1(CC2(C)SCCCS2)SCCCS1`
Out: -1.1

In: Need growth inhibition, item CC(c1ccccc1)C(C)c1ccccc1 (stereo not given)
Out: 12.7

In: Need growth inhibition, item `Cc1cc(C)c(N(C)C(=O)CCC(=O)O)c(Br)c1`
Out: 3.1

In: Need growth inhibition, item N#CSC1C=CS(=O)(=O)C1 (stereo not given)
Out: 44.6

In: Need growth inhibition, item O=C(Nc1ccccc1O)C(O)C(O)C(O)C(O)CO (stereo not given)
Out: 35

----------
assayExplanation: NCI Yeast Anticancer Drug Screen. Data for the sgs1 mgt1 strain (AID 161);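 further: 0% = growth of cultures given vehicle only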
experimentalSetup: S. cerevisiae sgs1 mgt1 strain, at 50.0 µM
Compounds without any hit were thinned out: in the full panel of roughly 79,000, 15% have a hit. Calls of active or inactive are those of the source. Rule as the data show it: active = growth inhibition above about 70%; inactive = the rest.
Permitted responses: active, inactive

Worked examples, 4 compounds total:
| compound | classification |
| --- | --- |
| CCN(CC)CCOB(c1cccc2ccccc12)c1cccc2ccccc12 | inactive |
| O=c1c2ccccc2nc(-c2ccccc2)n1/N=C/c1cccnc1 | inactive |
| COc1ccc(CCNC(=S)/N=C\C2=C(O)c3ccccc3C2=O)cc1OC | inactive |
| c1cc2c3c(cccc3c1)N=S=N2 | inactive |

In: What did the test return for `CCCCCCCCCCCCCCCC/C(C(=O)OC)=C(/O)C(=O)OCC` ?
Out: inactive

----------
assayExplanation: NCI Yeast Anticancer Drug Screen. Data for the sgs1 mgt1 strain (AID 161);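 further: 0% = growth of cultures given vehicle only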
experimentalSetup: S. cerevisiae sgs1 mgt1 strain, at 50.0 µM, hits give high values
About 79,000 compounds went through this panel and 15% of them were active in at least one assay; those are over-represented in the sample as a whole.
The entries below are paired with their reported growth inhibition.
Only the number, expressed in %, is required.

# example entries with known answers
| molecule | readoutName | measured |
| --- | --- | --- |
| Nc1nc(N)c2cc(S(=O)(=O)c3ccc(Cl)cc3)ccc2n1 | growth inhibition | 12.5 |
| COc1cc(C(=O)O)cc(OC)c1OC(C)=O | growth inhibition | 3.8 |
| CC1CCC(C)C(O)C1 (configuration not stated) | growth inhibition | -19.1 |
| O=[N+]([O-])/C(Cl)=C(\NCCO)C(Cl)=C(Cl)Cl | growth inhibition | 38 |

In: Need growth inhibition, item `CCCCOC(=O)c1c(C)c(C)cc(C)c1C`
Out: 6.3

In: Need growth inhibition, item `CC(=O)c1c(-c2ccc(Cl)cc2)c(-c2ccc(Cl)cc2)nn(CCNC(C)C)c1=O`
Out: 95.8

In: Need growth inhibition, item CCOP(C)(=O)C(Cc1c[nH]c2ccccc12)C(=O)O (configuration not stated)
Out: 9.9

In: Need growth inhibition, item `O=C(c1ccc(Cl)cc1)c1onc(-c2ccccc2)c1-c1ccccc1`
Out: -0.3

In: Need growth inhibition, item `COC(C(=O)CN(C)C)(c1ccccc1)c1ccccc1`
Out: -1.85

In: Need growth inhibition, item O=C1OC(c2ccccc2)(c2ccccc2)CC1c1ccccc1 (configuration not stated)
Out: 12.8

In: Need growth inhibition, item `C=CCn1c(NCCN(CC)CC)nc2ccc(Cl)cc2c1=O`
Out: 31.8

In: Need growth inhibition, item `O=C(O)c1c(Br)c(Br)c(Br)c(Br)c1C(=O)Nc1ccc(Cl)c(Cl)c1`
Out: -0.75
